System: HOP-62
Assay Comment: NCI-60 single-dose screen
Format: cell-based
Condition Parameters: Homo sapiens, single dose 10 µM, '-' = no inhibition, read-out: % Growth Inhibition
Recorded inhibition at 10 µM values for a group of molecules are listed next.

q: Return reported inhibition at 10 µM. Input molecule: `COc1ccc(CSc2nc(-c3ccc(Cl)cc3)cc(-c3ccc(OC)c(OC)c3)n2)cc1`
a: 16.4%

q: Return reported inhibition at 10 µM. Input molecule: `CCCSc1nc(-c2ccc(Cl)cc2)cc(-c2ccc(OC)cc2)n1`
a: < 0%

q: Return reported inhibition at 10 µM. Input molecule: `COc1ccc(-c2cc(-c3ccc(Cl)cc3)nc(SC)n2)cc1`
a: 9.16%

q: Return reported inhibition at 10 µM. Input molecule: `CCCSc1nc(-c2ccc(OC)cc2)cc(-c2cccc(OC)c2)n1`
a: < 0%

q: Return reported inhibition at 10 µM. Input molecule: `CCCSc1nc(-c2ccc(Cl)cc2)cc(-c2ccc(OC)c(OC)c2)n1`
a: < 0%

q: Return reported inhibition at 10 µM. Input molecule: `C=CCSc1nc(-c2ccc(Cl)cc2)cc(-c2ccc(OC)c(OC)c2)n1`
a: < 0%

q: Return reported inhibition at 10 µM. Input molecule: `COc1ccc(-c2cc(-c3ccc(Cl)cc3)nc(SCc3ccccc3)n2)cc1`
a: < 0%

q: Return reported inhibition at 10 µM. Input molecule: `COc1ccc(-c2cc(-c3ccc(Cl)cc3)nc(SC(C)C)n2)cc1`
a: < 0%

q: Return reported inhibition at 10 µM. Input molecule: `CCSc1nc(-c2ccc(OC)cc2)cc(-c2cccc(OC)c2)n1`
a: < 0%

q: Return reported inhibition at 10 µM. Input molecule: `COc1ccc(-c2cc(-c3ccc(Cl)cc3)nc(SCc3ccccc3)n2)cc1OC`
a: < 0%

q: Return reported inhibition at 10 µM. Input molecule: `COc1ccc(-c2cc(-c3cccc(OC)c3)nc(SC(C)C)n2)cc1`
a: < 0%

q: Return reported inhibition at 10 µM. Input molecule: `COc1ccc(-c2cc(-c3ccc(Cl)cc3)nc(SC)n2)cc1OC`
a: < 0%

q: Return reported inhibition at 10 µM. Input molecule: `C=CCSc1nc(-c2ccc(Cl)cc2)cc(-c2ccc(OC)cc2)n1`
a: < 0%

q: Return reported inhibition at 10 µM. Input molecule: `COc1ccc(CSc2nc(-c3ccc(Cl)cc3)cc(-c3ccc(OC)cc3)n2)cc1`
a: < 0%

q: Return reported inhibition at 10 µM. Input molecule: `CCSc1nc(-c2ccc(Cl)cc2)cc(-c2ccc(OC)c(OC)c2)n1`
a: < 0%

q: Return reported inhibition at 10 µM. Input molecule: `COc1ccc(-c2cc(-c3ccc(Cl)cc3)nc(SC(C)C)n2)cc1OC`
a: < 0%

q: Return reported inhibition at 10 µM. Input molecule: `CCSc1nc(-c2ccc(Cl)cc2)cc(-c2ccc(OC)cc2)n1`
a: < 0%

q: Return reported inhibition at 10 µM. Input molecule: `COc1ccc(-c2cc(-c3cccc(OC)c3)nc(SC)n2)cc1`
a: 1.53%

q: Return reported inhibition at 10 µM. Input molecule: `C=CCSc1nc(-c2ccc(OC)cc2)cc(-c2cccc(OC)c2)n1`
a: < 0%

###

Tested on: HCT-15
Assay Comment: NCI-60 single-dose screen
Format: cell-based
Condition Parameters: Homo sapiens, single dose 10 µM, '-' = no inhibition, read-out: % Growth Inhibition
Quick rule: inhibition at 10 µM of at least 8% means true, below that means false.

Study these solved cases before continuing.
[
  {
    "Molecule": "CCCSc1nc(-c2ccc(Cl)cc2)cc(-c2ccc(OC)cc2)n1 [Compound 11]",
    "Class Name": "false"
  },
  {
    "Molecule": "COc1ccc(CSc2nc(-c3ccc(Cl)cc3)cc(-c3ccc(OC)cc3)n2)cc1 [Compound 15]",
    "Class Name": "false"
  },
  {
    "Molecule": "COc1ccc(-c2cc(-c3ccc(Cl)cc3)nc(SCc3ccccc3)n2)cc1OC [Compound 28]",
    "Class Name": "true"
  },
  {
    "Molecule": "CCSc1nc(-c2ccc(Cl)cc2)cc(-c2ccc(OC)cc2)n1 [Compound 10]",
    "Class Name": "true"
  }
]

q: Please check the record CCSc1nc(-c2ccc(OC)cc2)cc(-c2cccc(OC)c2)n1 [Compound 17] and state if its inhibition at 10 µM is at or above 8%.
a: false

q: Please check the record COc1ccc(-c2cc(-c3ccc(Cl)cc3)nc(SC(C)C)n2)cc1OC [Compound 26] and state if its inhibition at 10 µM is at or above 8%.
a: false

q: Please check the record CCCSc1nc(-c2ccc(Cl)cc2)cc(-c2ccc(OC)c(OC)c2)n1 [Compound 25] and state if its inhibition at 10 µM is at or above 8%.
a: true

q: Please check the record CCCSc1nc(-c2ccc(OC)cc2)cc(-c2cccc(OC)c2)n1 [Compound 18] and state if its inhibition at 10 µM is at or above 8%.
a: true

###

Tested on: MDA-MB-435
Assay Comment: NCI-60 single-dose screen
Type: cell-based
Condition Parameters: Homo sapiens, single dose 10 µM, '-' = no inhibition, read-out: % Growth Inhibition
Recorded inhibition at 10 µM values for a group of molecules are listed next.
Respond numerically; units are % and should not be typed.

Examples with their reported inhibition at 10 µM follow.
[
  {
    "Smiles Text": "COc1ccc(CSc2nc(-c3ccc(Cl)cc3)cc(-c3ccc(OC)c(OC)c3)n2)cc1",
    "Unit Annotation": "%",
    "inhibition at 10 µM": 22.8
  },
  {
    "Smiles Text": "COc1ccc(-c2cc(-c3ccc(Cl)cc3)nc(SCc3ccccc3)n2)cc1OC",
    "Unit Annotation": "%",
    "inhibition at 10 µM": 15.2
  },
  {
    "Smiles Text": "CCSc1nc(-c2ccc(Cl)cc2)cc(-c2ccc(OC)c(OC)c2)n1",
    "Unit Annotation": "%",
    "inhibition at 10 µM": 19.7
  }
]

q: Return reported inhibition at 10 µM. Input molecule: `CCSc1nc(-c2ccc(Cl)cc2)cc(-c2ccc(OC)cc2)n1`
a: 8.38

q: Return reported inhibition at 10 µM. Input molecule: `COc1ccc(-c2cc(-c3cccc(OC)c3)nc(SC(C)C)n2)cc1`
a: 3.92

q: Return reported inhibition at 10 µM. Input molecule: `COc1ccc(-c2cc(-c3ccc(Cl)cc3)nc(SC(C)C)n2)cc1`
a: 8.92

q: Return reported inhibition at 10 µM. Input molecule: `CCCSc1nc(-c2ccc(OC)cc2)cc(-c2cccc(OC)c2)n1`
a: 5.12

q: Return reported inhibition at 10 µM. Input molecule: `COc1ccc(-c2cc(-c3ccc(Cl)cc3)nc(SC)n2)cc1OC`
a: 18

q: Return reported inhibition at 10 µM. Input molecule: `C=CCSc1nc(-c2ccc(Cl)cc2)cc(-c2ccc(OC)c(OC)c2)n1`
a: 6.35

###

Test system: MDA-MB-468
Assay Comment: NCI-60 single-dose screen
Assay type: cell-based
Condition Parameters: Homo sapiens, single dose 10 µM, '-' = no inhibition, read-out: % Growth Inhibition
Measured Quantity: inhibition at 10 µM (%)
Respond numerically; units are % and should not be typed.

Examples with their reported inhibition at 10 µM follow.
[
  {
    "Compound": "COc1ccc(-c2cc(-c3ccc(Cl)cc3)nc(SC)n2)cc1OC [Compound 23]",
    "Unit Annotation": "%",
    "Recorded Result": 6.77
  },
  {
    "Compound": "C=CCSc1nc(-c2ccc(Cl)cc2)cc(-c2ccc(OC)cc2)n1 [Compound 13]",
    "Unit Annotation": "%",
    "Recorded Result": 16.2
  }
]

Kindly consider the entry below.
q: Tell me its inhibition at 10 µM on MDA-MB-468: COc1ccc(-c2cc(-c3cccc(OC)c3)nc(SC)n2)cc1 [Compound 16]
a: 17.4

###

System: RPMI-8226
Assay Comment: NCI-60 single-dose screen
Assay type: cell-based
Condition Parameters: Homo sapiens, single dose 10 µM, '-' = no inhibition, read-out: % Growth Inhibition
Experimental: The National Cancer Institute’s Developmental Therapeutic Program (www.dtp.nci.nih.gov) has tested compounds 9–29 (except compounds 21 and 22) against 60 cancer cell lines from nine types (leukemia, lung, colon, CNS, melanoma, ovarian, renal, prostate, and breast cancer) at a single dose (10 μM) ([El-Sherief et al., 2018]). […]
Measured Quantity: inhibition at 10 µM

Examples with their reported inhibition at 10 µM follow.
[
  {
    "Smiles Text": "CCCSc1nc(-c2ccc(Cl)cc2)cc(-c2ccc(OC)cc2)n1",
    "inhibition at 10 µM": "< 0%"
  },
  {
    "Smiles Text": "C=CCSc1nc(-c2ccc(OC)cc2)cc(-c2cccc(OC)c2)n1",
    "inhibition at 10 µM": "4.53%"
  },
  {
    "Smiles Text": "COc1ccc(-c2cc(-c3ccc(Cl)cc3)nc(SC(C)C)n2)cc1",
    "inhibition at 10 µM": "26.7%"
  },
  {
    "Smiles Text": "CCSc1nc(-c2ccc(OC)cc2)cc(-c2cccc(OC)c2)n1",
    "inhibition at 10 µM": "3.83%"
  },
  {
    "Smiles Text": "COc1ccc(-c2cc(-c3ccc(Cl)cc3)nc(SC(C)C)n2)cc1OC",
    "inhibition at 10 µM": "0.53%"
  },
  {
    "Smiles Text": "C=CCSc1nc(-c2ccc(Cl)cc2)cc(-c2ccc(OC)c(OC)c2)n1",
    "inhibition at 10 µM": "14.3%"
  }
]

q: Return reported inhibition at 10 µM. Input compound: `COc1ccc(-c2cc(-c3ccc(Cl)cc3)nc(SC)n2)cc1OC`
a: 20.1%

q: Return reported inhibition at 10 µM. Input compound: `COc1ccc(-c2cc(-c3ccc(Cl)cc3)nc(SCc3ccccc3)n2)cc1OC`
a: 24.3%

q: Return reported inhibition at 10 µM. Input compound: `CCCSc1nc(-c2ccc(Cl)cc2)cc(-c2ccc(OC)c(OC)c2)n1`
a: 10.8%

q: Return reported inhibition at 10 µM. Input compound: `CCSc1nc(-c2ccc(Cl)cc2)cc(-c2ccc(OC)c(OC)c2)n1`
a: 26.4%
